Answer each item with its documented GI50.
Test system: 786-0
Assay: Antiproliferative activity against human 786-0 cells assessed as inhibition of cell growth measured after 48 hrs by SRB assay
Assay type: functional
Conditions: 786-0, 48 h
Express your answer in nM, writing the number without its unit.

Summary for this molecule, O=C1CC(c2ccccc2)Cc2nc3ccc(Cl)cc3cc21 (stereo not given) : GI50 is 838

Summary for this molecule, COc1ccc2nc3c(cc2c1)C(=O)CC(c1ccccc1)C3 (stereo not given) : GI50 is 4370

Summary for this molecule, O=C1CC(c2ccccc2)Cc2nc3ccc(Br)cc3cc21 (stereo not given) : GI50 is 784

Summary for this molecule, O=C1CC(c2ccccc2)Cc2nc3c(Br)cc(Br)cc3cc21 (stereo not given) : GI50 is 813

Summary for this molecule, COc1ccc2nc3c(cc2c1)C(=O)CC(C(F)(F)F)C3 (stereo not given) : GI50 is 6570
